assay: Biodistribution studies incl. blocking experiments; assay type: in vivo; conditions: healthy BALB/c mice, 30 min p.i.
Measured parameter: Biodistribution Blood (% ID/g)
Numeric only. Scale: % ID/g

-- ask # query: Biodistribution Blood of entry CC(=O)N[C@H]1[C@H](OCCOCCOCCn2cc(CNC(=O)CCP(=O)([O-])CN3CCN(CP(=O)([O-])CCC(=O)NCc4cn(CCOCCOCCO[C@@H]5O[C@H](CO)[C@H](O)[C@H](O)[C@H]5NC(C)=O)nn4)CCN(CP(=O)([O-])CCC(=O)NCc4cn(CCOCCOCCO[C@@H]5O[C@H](CO)[C@H](O)[C@H](O)[C@H]5NC(C)=O)nn4)CC3)nn2)O[C@H](CO)[C@H](O)[C@@H]1O.[68Ga+3] [[^68Ga]Ga-TRAP-GalNAc]
-- reply 0.57

----------
In this section we review reported Biodistribution Liver values for a set of compounds.
test: Biodistribution studies incl. blocking experiments; format: in vivo; conditions: healthy BALB/c mice, 10 min p.i.
Numeric only. Scale: % ID/g

// known answers, use as guide
-- ask # query: Biodistribution Liver of entry O=C(CCP(=O)([O-])CN1CCN(CP(=O)([O-])CCC(=O)NCc2cn(CCOCCOCCO[C@@H]3O[C@H](CO)[C@@H](O)[C@H](O)[C@H]3O)nn2)CCN(CP(=O)([O-])CCC(=O)NCc2cn(CCOCCOCCO[C@@H]3O[C@H](CO)[C@@H](O)[C@H](O)[C@H]3O)nn2)CC1)NCc1cn(CCOCCOCCO[C@@H]2O[C@H](CO)[C@@H](O)[C@H](O)[C@H]2O)nn1.[68Ga+3] [[^68Ga]Ga-TRAP-Gluco, reference compound]
-- reply 1.06

-- ask # query: Biodistribution Liver of entry O=C(CCP(=O)([O-])CN1CCN(CP(=O)([O-])CCC(=O)NCc2cn(CCOCCOCCO[C@@H]3O[C@H](CO)[C@H](O)[C@H](O)[C@H]3O)nn2)CCN(CP(=O)([O-])CCC(=O)NCc2cn(CCOCCOCCO[C@@H]3O[C@H](CO)[C@H](O)[C@H](O)[C@H]3O)nn2)CC1)NCc1cn(CCOCCOCCO[C@@H]2O[C@H](CO)[C@H](O)[C@H](O)[C@H]2O)nn1.[68Ga+3] [[^68Ga]Ga-TRAP-Galactan]
-- reply 24.6

-- ask # query: Biodistribution Liver of entry O=C(CCP(=O)([O-])CN1CCN(CP(=O)([O-])CCC(=O)NCc2cn([C@@H]3O[C@H](CO)[C@H](O)[C@H](O)[C@H]3O)nn2)CCN(CP(=O)([O-])CCC(=O)NCc2cn([C@@H]3O[C@H](CO)[C@H](O)[C@H](O)[C@H]3O)nn2)CC1)NCc1cn([C@@H]2O[C@H](CO)[C@H](O)[C@H](O)[C@H]2O)nn1.[68Ga+3] [[^68Ga]Ga-Galacto-TRAP]
-- reply 12.2

Proceed to the following item.
-- ask # query: Biodistribution Liver of entry CC(=O)N[C@H]1[C@H](OCCOCCOCCn2cc(CNC(=O)CCP(=O)([O-])CN3CCN(CP(=O)([O-])CCC(=O)NCc4cn(CCOCCOCCO[C@@H]5O[C@H](CO)[C@H](O)[C@H](O)[C@H]5NC(C)=O)nn4)CCN(CP(=O)([O-])CCC(=O)NCc4cn(CCOCCOCCO[C@@H]5O[C@H](CO)[C@H](O)[C@H](O)[C@H]5NC(C)=O)nn4)CC3)nn2)O[C@H](CO)[C@H](O)[C@@H]1O.[68Ga+3] [[^68Ga]Ga-TRAP-GalNAc]
-- reply 69.1

----------
experiment: Biodistribution studies incl. blocking experiments; assay type: in vivo; settings: healthy BALB/c mice, 10 min p.i.
Please mark t if the recorded Biodistribution Femur is equal to or greater than 0.8 % ID/g, and f if it falls below.

Would you please look over these solved cases?
-- ask Does the reported Biodistribution Femur for O=C(CCP(=O)([O-])CN1CCN(CP(=O)([O-])CCC(=O)NCc2cn(CCOCCOCCO[C@@H]3O[C@H](CO)[C@@H](O)[C@H](O)[C@H]3O)nn2)CCN(CP(=O)([O-])CCC(=O)NCc2cn(CCOCCOCCO[C@@H]3O[C@H](CO)[C@@H](O)[C@H](O)[C@H]3O)nn2)CC1)NCc1cn(CCOCCOCCO[C@@H]2O[C@H](CO)[C@@H](O)[C@H](O)[C@H]2O)nn1.[68Ga+3] [[^68Ga]Ga-TRAP-Gluco, reference compound] fall at or above the 0.8 % ID/g mark?
-- reply t

-- ask Does the reported Biodistribution Femur for O=C(CCP(=O)([O-])CN1CCN(CP(=O)([O-])CCC(=O)NCc2cn([C@@H]3O[C@H](CO)[C@H](O)[C@H](O)[C@H]3O)nn2)CCN(CP(=O)([O-])CCC(=O)NCc2cn([C@@H]3O[C@H](CO)[C@H](O)[C@H](O)[C@H]3O)nn2)CC1)NCc1cn([C@@H]2O[C@H](CO)[C@H](O)[C@H](O)[C@H]2O)nn1.[68Ga+3] [[^68Ga]Ga-Galacto-TRAP] fall at or above the 0.8 % ID/g mark?
-- reply t

-- ask Does the reported Biodistribution Femur for CC(=O)N[C@H]1[C@H](OCCOCCOCCn2cc(CNC(=O)CCP(=O)([O-])CN3CCN(CP(=O)([O-])CCC(=O)NCc4cn(CCOCCOCCO[C@@H]5O[C@H](CO)[C@H](O)[C@H](O)[C@H]5NC(C)=O)nn4)CCN(CP(=O)([O-])CCC(=O)NCc4cn(CCOCCOCCO[C@@H]5O[C@H](CO)[C@H](O)[C@H](O)[C@H]5NC(C)=O)nn4)CC3)nn2)O[C@H](CO)[C@H](O)[C@@H]1O.[68Ga+3] [[^68Ga]Ga-TRAP-GalNAc] fall at or above the 0.8 % ID/g mark?
-- reply f

-- ask Does the reported Biodistribution Femur for O=C(CCP(=O)([O-])CN1CCN(CP(=O)([O-])CCC(=O)NCc2cn(CCOCCOCCO[C@@H]3O[C@H](CO)[C@H](O)[C@H](O)[C@H]3O)nn2)CCN(CP(=O)([O-])CCC(=O)NCc2cn(CCOCCOCCO[C@@H]3O[C@H](CO)[C@H](O)[C@H](O)[C@H]3O)nn2)CC1)NCc1cn(CCOCCOCCO[C@@H]2O[C@H](CO)[C@H](O)[C@H](O)[C@H]2O)nn1.[68Ga+3] [[^68Ga]Ga-TRAP-Galactan] fall at or above the 0.8 % ID/g mark?
-- reply t

Consider the record given below.
-- ask Does the reported Biodistribution Femur for O=C(O)CN1CCN(CC(=O)O)CCN([C@H](CCC(=O)NCCCC(=O)NC(COCc2cn(CCOCCOCCO[C@@H]3O[C@H](CO)[C@H](O)[C@H](O)[C@H]3O)nn2)(COCc2cn(CCOCCOCCO[C@@H]3O[C@H](CO)[C@H](O)[C@H](O)[C@H]3O)nn2)COCc2cn(CCOCCOCCO[C@@H]3O[C@H](CO)[C@H](O)[C@H](O)[C@H]3O)nn2)C(=O)O)CC1 [[^68Ga]Ga-NODAGA-TriGalactan, metal not drawn] fall at or above the 0.8 % ID/g mark?
-- reply t

----------
test system: human serum; test: Protein binding in fresh human serum (Sephadex MicroSpin G-50 columns); type: in vitro ADME; settings: 37° C., 30 min
Measured parameter: Protein binding (%)
Numeric only. Scale: %

// known answers, use as guide
-- ask Which Protein binding (%) is reported with human serum for this entry: O=C(CCP(=O)([O-])CN1CCN(CP(=O)([O-])CCC(=O)NCc2cn(CCOCCOCCO[C@@H]3O[C@H](CO)[C@@H](O)[C@H](O)[C@H]3O)nn2)CCN(CP(=O)([O-])CCC(=O)NCc2cn(CCOCCOCCO[C@@H]3O[C@H](CO)[C@@H](O)[C@H](O)[C@H]3O)nn2)CC1)NCc1cn(CCOCCOCCO[C@@H]2O[C@H](CO)[C@@H](O)[C@H](O)[C@H]2O)nn1.[68Ga+3] [[^68Ga]Ga-TRAP-Gluco, reference compound] ?
-- reply 3.3

-- ask Which Protein binding (%) is reported with human serum for this entry: CC(=O)N[C@H]1[C@H](OCCOCCOCCn2cc(CNC(=O)CCP(=O)([O-])CN3CCN(CP(=O)([O-])CCC(=O)NCc4cn(CCOCCOCCO[C@@H]5O[C@H](CO)[C@H](O)[C@H](O)[C@H]5NC(C)=O)nn4)CCN(CP(=O)([O-])CCC(=O)NCc4cn(CCOCCOCCO[C@@H]5O[C@H](CO)[C@H](O)[C@H](O)[C@H]5NC(C)=O)nn4)CC3)nn2)O[C@H](CO)[C@H](O)[C@@H]1O.[68Ga+3] [[^68Ga]Ga-TRAP-GalNAc] ?
-- reply 24.3

-- ask Which Protein binding (%) is reported with human serum for this entry: O=C(CCP(=O)([O-])CN1CCN(CP(=O)([O-])CCC(=O)NCc2cn(CCOCCOCCO[C@@H]3O[C@H](CO)[C@H](O)[C@H](O)[C@H]3O)nn2)CCN(CP(=O)([O-])CCC(=O)NCc2cn(CCOCCOCCO[C@@H]3O[C@H](CO)[C@H](O)[C@H](O)[C@H]3O)nn2)CC1)NCc1cn(CCOCCOCCO[C@@H]2O[C@H](CO)[C@H](O)[C@H](O)[C@H]2O)nn1.[68Ga+3] [[^68Ga]Ga-TRAP-Galactan] ?
-- reply 6.4

Proceed to the following item.
-- ask Which Protein binding (%) is reported with human serum for this entry: O=C(O)CN1CCN(CC(=O)O)CCN([C@H](CCC(=O)NCCCC(=O)NC(COCc2cn(CCOCCOCCO[C@@H]3O[C@H](CO)[C@H](O)[C@H](O)[C@H]3O)nn2)(COCc2cn(CCOCCOCCO[C@@H]3O[C@H](CO)[C@H](O)[C@H](O)[C@H]3O)nn2)COCc2cn(CCOCCOCCO[C@@H]3O[C@H](CO)[C@H](O)[C@H](O)[C@H]3O)nn2)C(=O)O)CC1 [[^68Ga]Ga-NODAGA-TriGalactan, metal not drawn] ?
-- reply 5.5
